Where these numbers come from: ChEMBL document CHEMBL1201862

Tested on: CCRF-CEM
Experiment: NCI tumour cell line growth inhibition, 48 h
Activity calls are given as the source filed them. Rule as the data show it: active = GI50 up to about 1.1 µM and inactive = higher.
Reply using exactly one outcome from active, inactive

*Q* Query: recorded result category for c1ccc(/N=c2/sc3ccccc3s/c2=N/c2ccccc2)cc1 in this test
*A* inactive

*Q* What did this assay record as the result for [N-]=[N+]=NC1=C(N=[N+]=[N-])c2cccc3cccc(c23)C1=O ?
*A* inactive

====

System: Hs-578T
Experiment: NCI tumour cell line growth inhibition, 48 h
Active and inactive are the calls of the source. No stated cut-off is given here; in the data, active = GI50 up to about 1.1 µM and inactive = higher.
Property: GI50; scope: individual molecules

Look over these answered cases.
[[record]]
molecule = "CSc1ccc(/C=C2\\N=C(c3ccccc3)N(c3nc4cc(Cl)c(F)cc4s3)C2=O)cc1"
endpoint_result = "21.7 µM (inactive)"

[[record]]
molecule = "Oc1nnc(-c2ccc(F)cc2)cc1-c1ccccc1"
endpoint_result = "48.3 µM (inactive)"

[[record]]
molecule = "C[n+]1c(-c2ccc(NC(=O)c3ccc(C(=O)Nc4ccc(-c5cn6ccccc6[n+]5C)cc4)cc3)cc2)cn2ccccc21"
endpoint_result = "> 100 µM (inactive)"

[[record]]
molecule = "COc1cccc(CCCNC(=O)Cc2ccccc2CO)c1"
endpoint_result = "> 100 µM (inactive)"

[[record]]
molecule = "COc1ccc(/C=C2\\N=C3Sc4c([nH]cnc4=O)N3C2=O)cc1"
endpoint_result = "> 100 µM (inactive)"


*Q* Report GI50 for CC(C)[Si](OC1=C(C(=O)Nc2ccccc2Cl)CCCCC1)(C(C)C)C(C)C please.
*A* > 100 µM (inactive)

*Q* Form field: reported GI50 of COC(CN(C(C)=O)C1CCC2(SCCS2)c2[nH]c3ccccc3c21)OC (stereo not given)
*A* 54.6 µM (inactive)

*Q* Value lookup for GI50; key = CCOC(=O)CC1Nc2ccccc2C12CCc1c([nH]c3ccccc13)C2C(=O)OCC (stereo not given)
*A* 8.18 µM (inactive)

*Q* Data request, read-out GI50, for Cc1ccc(SC2C(=O)C3CC(OCc4ccccc4)C2(C)C3(C)C)cc1 (stereo not given)
*A* > 100 µM (inactive)

*Q* What value of GI50 has been reported for the following molecule? O=[N+]([O-])/C(C(Cl)=C(Cl)Cl)=C(\Nc1cccc2cccnc12)Sc1ccccc1
*A* 13.4 µM (inactive)
